These measurements were taken from ChEMBL document CHEMBL5050860.

Each entry below carries its recorded pKi.
- assay-info: Inhibition of His-tagged HSD17B13 (unknown origin) using LTB3 as substrate incubated for 1 hr and measured after 1 hr by fluorescence based assay
- Parameters: species or system Homo sapiens
Conceptually, pKi converts a concentration in mol/L into minus its log10.

Below: 2 compounds and their reported pKi.
INPUT: Please give the documented pKi of CCOC(=O)c1cccc(-n2c(-c3ccncc3)nc3cc(OC)ccc32)c1
OUTPUT: 5.57

INPUT: Please give the documented pKi of Cc1cc(-c2ccc(-c3cccc(O)c3)s2)ccc1O
OUTPUT: 5.97

Let us examine a further case.
INPUT: Please give the documented pKi of O=C1c2ccc(O)cc2C(=O)c2ccc(O)cc21
OUTPUT: 5.55

----------
- Species: Homo sapiens
- assay-info: Ratio of Ki for inhibition of His-tagged HSD17B13 (unknown origin) using LTB3 as substrate to Ki for His-tagged HSD17B13 (unknown origin) using estradiol as substrate
Each entry below carries its recorded Ratio Ki.
Format: numeric value only, no unit, no commentary.

INPUT: Please give the documented Ratio Ki of Cc1cc(-c2ccc(-c3cccc(O)c3)s2)ccc1O
OUTPUT: 0.14

Let us examine a further case.
INPUT: Please give the documented Ratio Ki of O=C1c2ccc(O)cc2C(=O)c2ccc(O)cc21
OUTPUT: 8.8

----------
- assay-info: Inhibition of His-tagged HSD17B13 (unknown origin) using estradiol as substrate incubated for 2 hrs and measured by LC-MS/MS analysis
- Parameters: species or system Homo sapiens
Each entry below carries its recorded Ki.

INPUT: Please give the documented Ki of CCOC(=O)c1cccc(-n2c(-c3ccncc3)nc3cc(OC)ccc32)c1
OUTPUT: > 30 µM

INPUT: Please give the documented Ki of Oc1cccc(-c2nccc3cc(O)ccc23)c1
OUTPUT: 8.55 µM

INPUT: Please give the documented Ki of Cc1cc(-c2ccc(-c3cccc(O)c3)s2)ccc1O
OUTPUT: 7.58 µM

Let us examine a further case.
INPUT: Please give the documented Ki of O=C1c2ccc(O)cc2C(=O)c2ccc(O)cc21
OUTPUT: 0.32 µM
